experiment: protease stability score; higher = more stable; yeast display proteolysis, trypsin and chymotrypsin;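 note: log10 excess protease needed over predicted unfolded state with 0 meaning unfolded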
property measured: protease stability score
Give the value as a plain number.

Please review the following examples before continuing.
- item sequence: "DEEANKVAKKLWEAIDHGNKEQAKELADPNAKAHVGDKSIHGMDTFVTWIKEIFDTMSFEVRIEDMKVHNGRLSANVRATFDINGQPRHQQARFKMDIHNGKISKVVIEMPKEKWKTILR"
  protease stability score: 0.97
- item sequence: "DERAEELVKRIFEALHDGDPQKFVNNIDPNARVNIGDEEIHGRKDAEREIQKRLEHSRVRFDLRSFRVSNGRAEATANVQENHNGRPQTNTVKATFVIHDGRVKEINMQHDG"
  protease stability score: -0.101
- item sequence: "DEENRKIAKKLVEAMHTNDEETLEKMFDPNVRFDVGDREVHGKEQWKREQHKKNREARFEIQRYTISYEGDKAVVRIHQVEDHNGQPREDTYVMHVEVHNGKVKRVVQRKDS"
  protease stability score: -0.129
- item sequence: "DREERARQLLRELLKALETGDEDTAANQADPNVRVSVGDRTYHGREQYRTFLRKVAERVDHLEVRVDRVTQDNGQIHMDMTVRHEKNGRTHRKEFVIQIDVQGDKNRFVQMRHK"
  protease stability score: -0.163

Moving on to another sequence below.
Incoming: So what does the record say about protease stability score for "DEDTIKKLVKRMIDALVKNNTEEARRLLKPDVRFEAVDTEVRGPDQVATYYKKVKDLGVEIRVKEYKVEGNHAKVKYDMRHGGDQITVEAELEAKDSKVDRFRHEDDEKYQKTVKHG" ?
Outgoing: 0.154

###

experiment: protease stability score; higher = more stable; yeast display proteolysis, trypsin and chymotrypsin;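 note: log10 excess protease needed over predicted unfolded state with 0 meaning unfolded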
property measured: protease stability score
Give the value as a plain number.

- item sequence: "DEEAKEVLERWHTAIKHGDPNLAKEMADKDVRINVGDKSFSGMEQNAKDMHRERNELEYEILSVRFEVHGDKVKVEFHATRNNNGNPDTKKFDLTATASNGKATRVTLQSSG"
  property measured: "protease stability score"
  assay value: -0.538

Moving on to another sequence below.
Incoming: So what does the record say about protease stability score for "DDQKTANHLNKQFKDVWTSGDEHRLQELMDPNVRVDVGDKRYKGDEQVNKYFIDLLRNVDHVDFDVKDMKARGEKVLLVVDIRVDINGKRHRFNARQIFTVEGDQARVKVYHDG" ?
Outgoing: 0.653

###

experiment: protease stability score; higher = more stable; yeast display proteolysis, trypsin and chymotrypsin;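 note: log10 excess protease needed over predicted unfolded state with 0 meaning unfolded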
property measured: protease stability score
Give the value as a plain number.

Please review the following examples before continuing.
- item sequence: "EQELRKKATEMLKVVQEGDEDRLVEYADPNVRVQVGDKVLHGQEDLRKFVQRLTKESRIHLKHVDIEVHGNKIDITVEADVEHNGRPSTDTFSMRVEMENGRAKFIQVRTSK"
  protease stability score: 1.39
- item sequence: "DEEQDARRIAELLDKVFRNNDEDQFMRLMDPNAEVVVGDKTYRGREQARSAMSEIVKHFDHVHLKLDSFSNHNGRVTASNTLHADSNGKKRKVKVTIHFDVKGDKAVIKHLTIE"
  protease stability score: 0.866
- item sequence: "EDEVLKELLEAVRHNDPDKIKELIDPNARFRVGDKSLHGMEEAAEQYARMMKRVDHIQIDSMSAHGDTFTVDQRFHFDGRTLSVTIRIRIHNGRIEELVIEVRSEEDKKNLDNLLS"
  protease stability score: -0.097

Incoming: So what does the record say about protease stability score for "DDEAKDVVDTFMHAVRFGDPDKVDRNIDKDVRLRYGDTEVHGREDAKTYIEDLRDESRVKINEYSATAHNGKADLDADMSFTRNGQPRKRKMKVTAEVHNGHIKELDVQWRP" ?
Outgoing: -0.313
